STUDY_TARGET: Cyclin-dependent kinase 2/cyclin E1 (Homo sapiens, UniProt P24941)
ASSAY_PROTOCOL: Inhibition of human recombinant Cdk2/cyclin E incubated for 40 mins by scintillation proximity assay
Listed below: IC50 values for each entry.

# example entries with known answers
>  <INPUT_SMILES>
CC(=O)c1ccc2nc(-c3csc(S(N)(=O)=O)c3)sc2c1

>  <MEASURED_VALUE>
> 10 µM

$$$$
>  <INPUT_SMILES>
NS(=O)(=O)c1cc(-c2nc3cccc(-c4ccc(F)cc4)c3s2)cs1

>  <MEASURED_VALUE>
> 10 µM

$$$$

Would you kindly look at the next entry?
Look at this molecule and give its reported IC50. O=S(=O)(c1cc(-c2nc3ccccc3s2)cs1)N1CCC[C@@H]1CO
> 10 µM

---

Species: Homo sapiens
ASSAY_PROTOCOL: Selectivity index, ratio of IC50 for human recombinant Cdk2/cyclin E to IC50 for human recombinant Cdk5/p25
MEASURED_PROPERTY: Ratio IC50
# answer = number (no unit)

# example entries with known answers
>  <INPUT_SMILES>
CCOC(=O)Cc1csc(NS(=O)(=O)c2cc(-c3nc4ccccc4s3)cs2)n1

>  <MEASURED_PROPERTY>
Ratio IC50

>  <MEASURED_VALUE>
2

$$$$
>  <INPUT_SMILES>
Cc1ccc2nc(-c3csc(S(N)(=O)=O)c3)sc2c1

>  <MEASURED_PROPERTY>
Ratio IC50

>  <MEASURED_VALUE>
2

$$$$
>  <INPUT_SMILES>
O=S(=O)(Nc1nccs1)c1cc(-c2nc3ccccc3s2)cs1

>  <MEASURED_PROPERTY>
Ratio IC50

>  <MEASURED_VALUE>
2

$$$$

Would you kindly look at the next entry?
Look at this compound and give its reported Ratio IC50. Cc1nc(NS(=O)(=O)c2cc(-c3nc4ccccc4s3)cs2)sc1C
2
